# assayed_system: Serine/threonine-protein kinase PLK1 (Homo sapiens)
# cond: at 10 µM
Would you mind labelling by residual activity? At or over 80% is criterion met, under is criterion not met.

query: Could you tell me if the measured residual activity of "CC(C)n1cnc2/c(=N/c3cccc(Cl)c3)nc(NCCO)[nH]c21" reaches 80% or more?
result: criterion not met

query: Could you tell me if the measured residual activity of "Oc1ccc(-c2nc(-c3ccc(F)cc3)c(-c3ccncc3)[nH]2)cc1" reaches 80% or more?
result: criterion met

query: Could you tell me if the measured residual activity of "Cc1cc(Nc2nc(-c3ccccc3)nc3ccccc23)n[nH]1" reaches 80% or more?
result: criterion not met

query: Could you tell me if the measured residual activity of "Nc1n[nH]c2nnc(-c3c(-c4ccccc4)nn4ccccc34)cc12" reaches 80% or more?
result: criterion met

query: Could you tell me if the measured residual activity of "O=C(O)c1ccc2c3c1cccc3c(=O)n1c3ccccc3nc21" reaches 80% or more?
result: criterion met

query: Could you tell me if the measured residual activity of "O=c1cc(-c2cccc3c2Sc2ccccc2S3)oc(N2CCOCC2)c1" reaches 80% or more?
result: criterion met

query: Could you tell me if the measured residual activity of "COc1ccc(C(=O)Nc2sc3c(c2C(N)=O)CCCC3)cc1OC" reaches 80% or more?
result: criterion not met

query: Could you tell me if the measured residual activity of "C[C@@H](N)[C@H]1CC[C@H](C(=O)Nc2ccncc2)CC1" reaches 80% or more?
result: criterion met

query: Could you tell me if the measured residual activity of "Nc1cccc(-c2cc3c(Oc4cccc(O)c4)ncnc3[nH]2)c1" reaches 80% or more?
result: criterion met

query: Could you tell me if the measured residual activity of "N#C/C(=C(\N)Sc1ccc(N)cc1)c1ccccc1C(F)(F)F" reaches 80% or more?
result: criterion met

query: Could you tell me if the measured residual activity of O=C1Nc2ccccc2/C1=C1/Nc2ccccc2/C1=N\OCCC(O)CO (stereo not drawn) reaches 80% or more?
result: criterion not met

query: Could you tell me if the measured residual activity of "Ic1cccc(CSc2nnc(-c3ccncc3)o2)c1" reaches 80% or more?
result: criterion not met

query: Could you tell me if the measured residual activity of "CN(C)CCCn1cc(C2=C(c3c[nH]c4ccccc34)C(=O)NC2=O)c2ccccc21" reaches 80% or more?
result: criterion met

query: Could you tell me if the measured residual activity of "Cc1nc(-c2ccccc2)c(-c2ccncc2)o1" reaches 80% or more?
result: criterion met

query: Could you tell me if the measured residual activity of "CC(=O)c1ccc(N2CCOCC2)cc1O" reaches 80% or more?
result: criterion not met

query: Could you tell me if the measured residual activity of "CC(=O)O/N=C1\C(=C2\C(=O)Nc3cc(Br)ccc32)Nc2ccccc21" reaches 80% or more?
result: criterion not met

query: Could you tell me if the measured residual activity of "COc1cc2ncc(-c3ccccc3)nc2cc1OC" reaches 80% or more?
result: criterion not met

query: Could you tell me if the measured residual activity of "Oc1ccc(Nc2nc(-c3ccc(Cl)cc3)cs2)cc1" reaches 80% or more?
result: criterion met

query: Could you tell me if the measured residual activity of "Nc1ccc2ncnc(NCCc3ccc(Oc4ccccc4)cc3)c2c1" reaches 80% or more?
result: criterion met

query: Could you tell me if the measured residual activity of "O=C1NC(=O)c2cc(Nc3ccc(F)cc3)c(Nc3ccc(F)cc3)cc21" reaches 80% or more?
result: criterion not met
